Ref: PubChem BioAssay (NCI)

System: ACHN renal
Assay Name: NCI tumour cell line growth inhibition, 48 h

Compound: O=C(/C=C/c1ccccc1)CC(c1ccccc1)N1CCOCC1 (stereo unspecified)
TGI: 4.4 µM
--
Compound: C#CCC(N)(CO)C(=O)O (stereo unspecified)
TGI: > 100 µM
--
Compound: NC(=O)/C=C/C(=O)O
TGI: > 5000 µM
--
Compound: COc1cccc(/C=C2\CCC(C)(CN(C)C)C2=O)c1 (stereo unspecified)
TGI: > 100 µM
--
Compound: CC(=O)N[C@H](C(=O)N[C@@H](CCCNC(=N)N)C(=O)N[C@@H](CCCCN)C(=O)N[C@@H](CCCNC(=N)N)C(=O)N[C@]1(C)CCCCCC/C=C\CCC[C@@](C)(C(=O)N[C@@H](CCCNC(=N)N)C(=O)N[C@@H](CCC(=O)O)C(=O)N[C@@H](CC(C)C)C(=O)N[C@H](C(=O)N[C@@H](CCC(=O)O)C(N)=O)C(C)C)NC(=O)[C@H](CCC(N)=O)NC(=O)[C@H](CC(C)C)NC(=O)[C@H](CC(C)C)NC(=O)[C@H](CCCNC(=N)N)NC(=O)[C@H](CCCNC(=N)N)NC(=O)[C@H](CC(C)C)NC1=O)C(C)C
TGI: 28.1 µM
--
Compound: Cc1ccc2c(c1)Sc1ccc(N=NN(C)C)cc1N2C
TGI: > 100 µM
--
Compound: CCOC(=N)n1c(=O)n(C2=NCCN2)c2ccccc21
TGI: > 100 µM
--
Compound: CC(=O)[CH-]C(C)=O.[CH2-]C.[CH2-]C.[Tl+3]
TGI: > 100 µM
--
Compound: CCCCCCCCCCCCCCCCCCNC(=O)[C@H]1CSC(c2cccs2)N1 (stereo partly specified)
TGI: > 50 µM
--
Compound: COc1ccc(CC(O)CN2CCOCC2)cc1 (stereo unspecified)
TGI: > 100 µM
--
Compound: Cc1ccc2nc3c(Cl)c(C)c(=O)cc-3sc2c1
TGI: > 100 µM
--
Compound: Cc1nc(Nc2n[nH]c3c2CN(C(=O)N[C@H](CN(C)C)c2ccccc2)C3(C)C)c2sccc2n1
TGI: > 75 µM
--
Compound: Cc1ccccc1C(O)(c1nccn1C)c1nccn1C
TGI: > 100 µM
--
Compound: CC(=O)NNc1nc(C)c(C(=O)NNC(=O)C(=O)Nc2nc3ccc([N+](=O)[O-])cc3s2)s1
TGI: > 100 µM
--
Compound: O=c1c2c3c(sc2n2c(-c4cc(-c5ccccc5)nn4-c4ccccc4)nnc2n1Cc1ccccc1)CCCC3
TGI: > 100 µM
--
Compound: COc1cc2c(cc1-c1c(C)noc1C)cc(C)c(=O)n2Cc1ccccn1
TGI: > 100 µM

====

Test system: T-47D breast
Assay Name: NCI tumour cell line growth inhibition, 48 h
Each entry below carries its reported TGI.

Smiles Entry: Cc1cc2c(Br)cc(Br)c(O)c2nc1C(=O)c1ccccc1
Target Or System: T-47D breast
TGI: 74.6 µM
--
Smiles Entry: CN(C)c1ccc(C=C2N=C(c3ccccc3)N(c3cc(C(=O)c4ccccc4)ccc3N3C(=O)/C(=C/c4ccc(N(C)C)cc4)N=C3c3ccccc3)C2=O)cc1
Target Or System: T-47D breast
TGI: > 100 µM
--
Smiles Entry: Cc1ccc2c(c1)Sc1ccc(N=NN(C)C)cc1N2C
Target Or System: T-47D breast
TGI: 85.9 µM

====

System: SF-295 CNS
Assay Name: NCI tumour cell line growth inhibition, 48 h
Observation Type: TGI

Compound: Cc1nnc(N/N=C(/C(=O)C(C#N)c2ccccc2)C(C#N)c2ccccc2)n1N (stereo not given)
Result: 13.7 µM
//
Compound: O=C/C(=C(/Cl)c1ccc(O)cc1)c1ccccc1
Result: > 72.2 µM
//
Compound: O=S(=O)(O)c1cc2ccc1/C=C\c1ccc(cc1S(=O)(=O)O)N=Nc1ccc(c(S(=O)(=O)O)c1)/C=C\c1ccc(cc1S(=O)(=O)O)N=N2
Result: > 100 µM
//
Compound: Clc1ccc(-c2nn3c(-c4ccncc4)nnc3s2)cc1
Result: > 100 µM
//
Compound: CC(=O)OCC1OC(n2cc([N+](=O)[O-])c(=O)[nH]c2=O)C(OC(C)=O)C(OC(C)=O)C1OC(C)=O (stereo not given)
Result: > 100 µM

====

Tested on: A549 NSCLC
Assay Name: NCI tumour cell line growth inhibition, 48 h
Recorded TGI, one value per entry.

Compound: Clc1ccc(-c2nn3c(-c4ccncc4)nnc3s2)cc1
Target Or System: A549 NSCLC
TGI: > 100 µM
//
Compound: CN(C)C(=S)S
Target Or System: A549 NSCLC
TGI: > 100 µM
//
Compound: CCOC(=O)/C=C(\C)c1ccc(C)cc1C
Target Or System: A549 NSCLC
TGI: > 100 µM
//
Compound: COc1nc(C#CCC(C)O)nc(OC)n1 (configuration not stated)
Target Or System: A549 NSCLC
TGI: 52.9 µM
//
Compound: CNC(SC)=C1C(=O)OC(C)(C)OC1=O
Target Or System: A549 NSCLC
TGI: > 100 µM
//
Compound: COc1ccccc1/C=C/C(=O)/C=C/c1ccccc1O
Target Or System: A549 NSCLC
TGI: 3.73 µM
//
Compound: CC(C)/C(Cl)=N\OC(=O)Nc1ccc(C#N)cc1
Target Or System: A549 NSCLC
TGI: 39.9 µM
//
Compound: CCOC(=O)C(=O)Nc1ccccc1C(F)(F)F
Target Or System: A549 NSCLC
TGI: > 100 µM
//
Compound: CCOC(=O)c1c(-c2ccc(OC)cc2)c(C#N)c(=S)n(C2OC(COC(C)=O)C(OC(C)=O)C(OC(C)=O)C2OC(C)=O)c1C (configuration not stated)
Target Or System: A549 NSCLC
TGI: > 100 µM
//
Compound: NC(=O)/C=C/C(=O)O
Target Or System: A549 NSCLC
TGI: > 5000 µM
//
Compound: CC(CC(=O)Nc1ccc(NC(=O)CC(C)N=NC(N)=S)cc1)N=NC(N)=S (configuration not stated)
Target Or System: A549 NSCLC
TGI: > 100 µM
//
Compound: CC1(C)N=C(N)N=C(N)N1c1ccc(OCC(=O)Nc2ccccc2)c(Cl)c1
Target Or System: A549 NSCLC
TGI: > 71.8 µM
//
Compound: O=C(NC12CC3CC(CC(C3)C1)C2)C(=O)c1c[nH]c2ccc(Cl)cc12
Target Or System: A549 NSCLC
TGI: > 100 µM
//
Compound: c1ccc(Cn2cnc3ccc(-c4nc(-c5ccc6c(c5)ncn6C5CCCCC5)cn5ccnc45)cc32)cc1
Target Or System: A549 NSCLC
TGI: 4.97 µM
//
Compound: O=C(c1ccc2ccccc2c1)c1c(C(F)(F)F)n([O-])c2ccc(Cl)cc2[n+]1=O
Target Or System: A549 NSCLC
TGI: 3.21 µM
//
Compound: COc1ccc(CC(C)C(C)Cc2ccc(OC)c(OC)c2)cc1OC (configuration not stated)
Target Or System: A549 NSCLC
TGI: > 1400 µM
//
Compound: COCCOCCOCc1n(Cc2ccc3ccccc3n2)c2ccccc2[n+]1Cc1ccc2ccccc2c1
Target Or System: A549 NSCLC
TGI: 10.6 µM
//
Compound: COc1cc(C2SCC(=O)N2c2ccc(NC(=O)c3ccc(N4C(=O)CSC4c4cc(OC)c(OC)c(OC)c4)cc3)cc2)cc(OC)c1OC (configuration not stated)
Target Or System: A549 NSCLC
TGI: > 100 µM
//
Compound: CC(=O)OCC1OC(n2cc([N+](=O)[O-])c(=O)[nH]c2=O)C(OC(C)=O)C(OC(C)=O)C1OC(C)=O (configuration not stated)
Target Or System: A549 NSCLC
TGI: > 100 µM
//
Compound: Cc1ccc(S(=O)(=O)N/N=C(\c2nc3ccc([N+](=O)[O-])cc3[nH]c2=O)C(O)c2ccccc2Cl)cc1 (configuration not stated)
Target Or System: A549 NSCLC
TGI: > 100 µM
//
Compound: C=CCC1[C@@H](C(C)(C)C(C(C)=O)C(=O)C(=O)OC)OC(C(C)(C)C)N1C(=O)OC (some centres not stated)
Target Or System: A549 NSCLC
TGI: > 100 µM
//
Compound: C/C=C/C=C/c1nc(C#N)c(N)o1
Target Or System: A549 NSCLC
TGI: > 100 µM

====

Tested on: HS 578T breast
Assay Name: NCI tumour cell line growth inhibition, 48 h
Item-by-item account of GI50

Compound: OB1OCc2cc(/C=C/c3cccc(C(F)(F)F)c3)ccc21
GI50: 4.49 µM

Compound: c1ccc(Cn2cnc3ccc(-c4nc(-c5ccc6c(c5)ncn6C5CCCCC5)cn5ccnc45)cc32)cc1
GI50: 2.71 µM

Compound: COc1cc2c(cc1-c1c(C)noc1C)cc(C)c(=O)n2Cc1ccccn1
GI50: 0.318 µM

Compound: NC(=O)C1(N2CCCCC2)CCN(CCCC(=O)c2ccc(F)cc2)CC1
GI50: 2.37 µM

Compound: CCCCCCCCCCCC[n+]1ccccc1 (tested in a mixture with another compound)
GI50: 1.71 µM

Compound: O=S1(=O)NCCCN1CCNc1nccc(-c2c(-c3cccc(O)c3)nc3sccn23)n1
GI50: 10.8 µM

Compound: CCN(CC)CCNC(=O)c1cn2ncnc(Oc3ccc(NC(=O)Nc4ccc(Cl)c(C(F)(F)F)c4)c(F)c3)c2c1C
GI50: 1.52 µM
